TARGET SYSTEM: Urease subunit alpha/Urease subunit beta (Helicobacter pylori (strain ATCC 700392 / 26695) (Campylobacterpylori), UniProt P69996)
Sequence (P69996 whole entry): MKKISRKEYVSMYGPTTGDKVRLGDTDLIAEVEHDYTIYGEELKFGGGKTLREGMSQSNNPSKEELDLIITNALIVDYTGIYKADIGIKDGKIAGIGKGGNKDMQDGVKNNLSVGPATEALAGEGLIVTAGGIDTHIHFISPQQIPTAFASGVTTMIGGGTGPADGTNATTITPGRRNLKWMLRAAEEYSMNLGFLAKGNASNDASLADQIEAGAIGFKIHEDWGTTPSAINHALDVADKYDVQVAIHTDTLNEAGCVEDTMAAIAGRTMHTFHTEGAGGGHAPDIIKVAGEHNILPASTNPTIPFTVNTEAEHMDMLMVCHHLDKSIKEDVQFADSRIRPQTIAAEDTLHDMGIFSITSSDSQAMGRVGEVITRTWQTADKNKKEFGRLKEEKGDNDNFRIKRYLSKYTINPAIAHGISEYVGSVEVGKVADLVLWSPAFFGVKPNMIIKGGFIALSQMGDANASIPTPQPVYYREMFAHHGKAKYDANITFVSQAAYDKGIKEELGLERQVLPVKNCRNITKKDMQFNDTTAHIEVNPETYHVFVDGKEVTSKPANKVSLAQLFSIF
Sequence (P14916 whole entry, further chain): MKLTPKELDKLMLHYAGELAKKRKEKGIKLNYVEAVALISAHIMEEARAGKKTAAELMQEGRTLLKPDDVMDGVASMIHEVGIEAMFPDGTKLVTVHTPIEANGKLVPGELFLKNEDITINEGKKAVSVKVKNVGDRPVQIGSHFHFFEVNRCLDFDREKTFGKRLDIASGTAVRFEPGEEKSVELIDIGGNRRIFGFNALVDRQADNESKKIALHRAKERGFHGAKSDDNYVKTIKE
ASSAY REMARKS: Inhibition of Helicobacter pylori urease using urea as substrate assessed as ammonia production after 50 mins by indophenol method
MEASUREMENT TYPE: log10 IC50 (log10 of the value in µM)
Please note: log10 values; quantity IC50; unit µM.

Worked set:
COMPOUND	OBSERVED RESULT
CN(O)C(=O)CC(O)c1ccc(Cl)cc1 (stereo unspecified)	1.94
CN(O)C(=O)CC(O)c1cccc(Br)c1 (stereo unspecified)	1.89
CN(O)C(=O)CC(O)c1ccc(OCc2ccccc2)cc1 (stereo unspecified)	2.30

Please indicate log10 IC50 recorded for CN(O)C(=O)CC(O)c1ccc(Cl)c(Cl)c1 (stereo unspecified)
1.96

Please indicate log10 IC50 recorded for COc1ccc(C(O)CC(=O)N(C)O)cc1 (stereo unspecified)
2.52

Please indicate log10 IC50 recorded for CN(O)C(=O)CC(O)c1ccc(OCc2ccccc2)c(OCc2ccccc2)c1 (stereo unspecified)
2.58

Please indicate log10 IC50 recorded for CN(O)C(=O)CC(O)c1ccc(Br)cc1 (stereo unspecified)
1.99

Please indicate log10 IC50 recorded for CN(O)C(=O)CC(O)c1cc(Cl)ccc1OCc1ccccc1 (stereo unspecified)
1.42

Please indicate log10 IC50 recorded for CN(O)C(=O)CC(O)c1cccc(Cl)c1 (stereo unspecified)
1.68

Please indicate log10 IC50 recorded for CN(O)C(=O)CC(O)c1c(Cl)cccc1Cl (stereo unspecified)
1.89

Please indicate log10 IC50 recorded for O=C(CC(O)c1ccc(Cl)cc1Cl)NO (stereo unspecified)
1.13

Please indicate log10 IC50 recorded for CN(O)C(=O)CC(O)c1cccc(Cl)c1Cl (stereo unspecified)
1.98

Please indicate log10 IC50 recorded for CN(O)C(=O)CC(O)c1cc(Cl)ccc1O (stereo unspecified)
1.48

Please indicate log10 IC50 recorded for COc1cccc(C(O)CC(=O)N(C)O)c1 (stereo unspecified)
1.95

Please indicate log10 IC50 recorded for COc1ccc(C(O)CC(=O)N(C)O)cc1OC (stereo unspecified)
2.61

Please indicate log10 IC50 recorded for O=C(CC(O)c1cc(Cl)ccc1OCc1ccccc1)NO (stereo unspecified)
-0.82
